- assayedSystem: NET (Homo sapiens, UniProt P23975)
- Sequence (P23975 whole entry): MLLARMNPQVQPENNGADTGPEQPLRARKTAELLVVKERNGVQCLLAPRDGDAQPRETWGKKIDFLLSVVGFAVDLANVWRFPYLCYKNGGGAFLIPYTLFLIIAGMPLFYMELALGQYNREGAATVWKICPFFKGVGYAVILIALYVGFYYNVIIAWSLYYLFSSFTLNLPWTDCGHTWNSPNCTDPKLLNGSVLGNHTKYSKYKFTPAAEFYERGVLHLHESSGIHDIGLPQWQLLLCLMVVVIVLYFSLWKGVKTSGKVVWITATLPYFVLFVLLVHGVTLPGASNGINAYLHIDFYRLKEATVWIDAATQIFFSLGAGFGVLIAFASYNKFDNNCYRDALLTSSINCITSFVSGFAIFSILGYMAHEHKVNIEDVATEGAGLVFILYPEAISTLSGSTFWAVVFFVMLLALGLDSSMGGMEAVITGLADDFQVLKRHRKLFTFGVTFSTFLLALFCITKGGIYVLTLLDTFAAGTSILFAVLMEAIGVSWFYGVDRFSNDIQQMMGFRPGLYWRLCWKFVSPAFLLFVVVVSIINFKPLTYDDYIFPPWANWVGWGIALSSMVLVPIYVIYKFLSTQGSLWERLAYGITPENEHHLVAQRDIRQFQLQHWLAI
- testProtocol: Competition binding assay in cell membranes over-expressing human NET
- Set-up: expressed in transfected cells
- experimentalContext: Example 25; cell membranes over-expressing the human NET
assayEndpoint: Ki (µM)

>>> reportedvalue("N=C(N)NCc1ccc(OCCC[18F])c(Br)c1 [imaging agent-1]")
5.16

---

- testProtocol: Thermal stability of salt forms
- Type: physicochemical
- experimentalContext: salt form of imaging agent precursor-1
assayEndpoint: Thermal stability, First event at (°C)

>>> reportedvalue("Cl.N=C(N)NCc1ccc(OCCCOS(=O)(=O)c2ccc(Br)cc2)c(Br)c1 [Hydrochloride]")
117
>>> reportedvalue("N=C(N)NCc1ccc(OCCCOS(=O)(=O)c2ccc(Br)cc2)c(Br)c1 [Sulfate]")
103
>>> reportedvalue("N=C(N)NCc1ccc(OCCCOS(=O)(=O)c2ccc(Br)cc2)c(Br)c1.O=C(O)C(F)(F)F [Trifluoroacetate]")
142
>>> reportedvalue("N=C(N)NCc1ccc(OCCCOS(=O)(=O)c2ccc(Br)cc2)c(Br)c1 [Phosphate]")
155
>>> reportedvalue("CS(=O)(=O)O.N=C(N)NCc1ccc(OCCCOS(=O)(=O)c2ccc(Br)cc2)c(Br)c1 [Mesylate]")
152
